- assay system: Tiam1 PDZ domain (wild-type) (Homo sapiens)
- Sequence (Q13009 841-930 limits assumed): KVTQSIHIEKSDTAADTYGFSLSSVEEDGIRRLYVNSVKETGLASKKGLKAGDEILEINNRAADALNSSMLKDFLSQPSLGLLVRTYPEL
- Format: binding
- condition summary: ΔΔGb = ΔGb(Core) − ΔGb(peptide)
Peptide text beside a SMILES is read from it. * marks the point of attachment. Dansyl = CN(C)c1cccc2c(S(=O)(=O)*)cccc12
The entries below come with measured ΔΔGb values attached.
quantity: ΔΔGb (kcal/mol)

1) C[C@H](NC(=O)[C@H](Cc1ccc(O)cc1)NC(=O)[C@H](Cc1ccccc1)NC(=O)[C@H](CCC(=O)O)NC(=O)[C@H](CCCCN)NC(=O)[C@H](CCC(N)=O)NC(=O)[C@H](CO)NC(=O)[C@H](CO)NS(=O)(=O)c1cccc2c(N(C)C)cccc12)C(=O)O [YP−2F–Sdc1] (Dansyl-SSQKEFYA-OH) : -0.07
2) CN(C)c1cccc2c(S(=O)(=O)N[C@@H](CO)C(=O)N[C@@H](CO)C(=O)N[C@@H](CCC(N)=O)C(=O)N[C@@H](CCCCN)C(=O)N[C@@H](CCC(=O)O)C(=O)N[C@@H](Cc3ccc(O)cc3)C(=O)N[C@@H](Cc3ccc(O)cc3)C(=O)N[C@@H](Cc3ccccc3)C(=O)O)cccc12 [AP0F–Caspr4] (Dansyl-SSQKEYYF-OH) : -0.17
3) C[C@H](NC(=O)[C@H](Cc1ccccc1)NC(=O)[C@H](Cc1ccc(O)cc1)NC(=O)[C@H](CCC(=O)O)NC(=O)[C@H](CCCCN)NC(=O)[C@H](CCC(N)=O)NC(=O)[C@H](CO)NC(=O)[C@H](CO)NS(=O)(=O)c1cccc2c(N(C)C)cccc12)C(=O)O [YP−1F–Caspr4] (Dansyl-SSQKEYFA-OH) : -0.40
